Source of measurements: patent US9133207B2

# Tested on: PANC-1 (pancreatic cancer)
# protocol: Solid tumor cell growth inhibition, MTT, 72 h (Example 7)
# Format: cell-based, human
# condition_label: Homo sapiens; 72 h, MTT, PANC-1
assay_metric: IC90 (µg/mL)
Hi! Could you send only the number? It should be in µg/mL, unit omitted.

Below, each entry is followed by its recorded IC90 result.
For the compound shown here, COc1ccc2cc1Oc1ccc(cc1)C[C@H]1c3cc(c(OC)cc3CCN1C)Oc1c(OC)c(OC)c(COCCn3ccnc3)c3c1[C@H](C2)N(C)CC3 [BS-TE-418] , give the reported IC90.
9.5

Same again, this time with COCC(C)OCc1c2c3c(c(OC)c1OC)Oc1cc4c(cc1OC)CCN(C)[C@H]4Cc1ccc(cc1)Oc1cc(ccc1OC)C[C@@H]3N(C)CC2 (stereo partly drawn) [BS-TE-406]
16

Next:
For the compound shown here, CCN1CCN(Cc2c3c4c(c(OC)c2OC)Oc2cc5c(cc2OC)CCN(C)[C@H]5Cc2ccc(cc2)Oc2cc(ccc2OC)C[C@@H]4N(C)CC3)CC1 [BS-TE-342] , give the reported IC90.
6.84

###

# Tested on: NB4 (acute promyelocytic leukemia, AML)
# protocol: Leukemia cell growth inhibition, MTT, 72 h (Example 5)
# Type: cell-based, human
# condition_label: Homo sapiens; 72 h, MTT
# IC90 per record follows
Hi! Could you send only the number? It should be in µg/mL, unit omitted.

Below, each entry is followed by its recorded IC90 result.
For the compound shown here, COc1ccc2cc1Oc1ccc(cc1)C[C@H]1c3cc(c(OC)cc3CCN1C)Oc1c(OC)c(OC)c(CNCc3ccco3)c3c1[C@H](C2)N(C)CC3 [BS-TE-350] , give the reported IC90.
1

Same again, this time with COc1ccc2cc1Oc1ccc(cc1)C[C@H]1c3cc(c(OC)cc3CCN1C)Oc1c(OC)c(OC)c(CN3CCCC(C)C3)c3c1[C@H](C2)N(C)CC3 (stereo partly drawn) [BS-TE-346]
1.5

Same again, this time with COc1ccc2cc1Oc1ccc(cc1)C[C@H]1c3cc(c(OC)cc3CCN1C)Oc1c(OC)c(OC)c(COCc3cccnc3)c3c1[C@H](C2)N(C)CC3 [BS-TE-411]
2.6

Same again, this time with COc1ccc2cc1Oc1ccc(cc1)C[C@H]1c3cc(c(OC)cc3CCN1C)Oc1c(OC)c(OC)c(CN3CCCN(C)CC3)c3c1[C@H](C2)N(C)CC3 [BS-TE-356]
2.17

Same again, this time with COc1ccc2cc1Oc1ccc(cc1)C[C@H]1c3cc(c(OC)cc3CCN1C)Oc1c(OC)c(OC)c(CN3CC=CC3)c3c1[C@H](C2)N(C)CC3 [BS-TE-329]
3.9

Next:
For the compound shown here, COCC(C)OCc1c2c3c(c(OC)c1OC)Oc1cc4c(cc1OC)CCN(C)[C@H]4Cc1ccc(cc1)Oc1cc(ccc1OC)C[C@@H]3N(C)CC2 (stereo partly drawn) [BS-TE-406] , give the reported IC90.
5.5

###

# System: SK-OV-3 (ovarian cancer cell)
# protocol: Solid tumor cell growth inhibition, MTT, 72 h (Example 7)
# Format: cell-based
# condition_label: Homo sapiens
# Experimental: […] Obtaining 4000 well-growing human solid tumor cells and inoculating them into wells of a 96-well cell culture plate. […] Then the viable cell concentration is determined by the MTT method and the cell viability (%) after drug treatment is calculated. […]
assay_metric: IC50 (mg/L)
Hi! Could you send only the number? It should be in mg/L, unit omitted.

Below, each entry is followed by its recorded IC50 result.
For the molecule shown here, COc1ccc2cc1Oc1ccc(cc1)C[C@H]1c3cc(c(OC)cc3CCN1C)Oc1c(OC)c(OC)c(CN3CCN(C(C)C)CC3)c3c1[C@H](C2)N(C)CC3 [BS-TE-333] , give the reported IC50.
3.04

Same again, this time with COc1ccc2cc1Oc1ccc(cc1)C[C@H]1c3cc(c(OC)cc3CCN1C)Oc1c(OC)c(OC)c(CN3CCCC(CO)C3)c3c1[C@H](C2)N(C)CC3 (some centres unmarked) [BS-TE-351]
3.5

Same again, this time with COc1ccc2cc1Oc1ccc(cc1)C[C@H]1c3cc(c(OC)cc3CCN1C)Oc1c(OC)c(OC)c(CN3CCCC(C)C3)c3c1[C@H](C2)N(C)CC3 (some centres unmarked) [BS-TE-346]
3.9

Same again, this time with COc1ccc2cc1Oc1ccc(cc1)C[C@H]1c3cc(c(OC)cc3CCN1C)Oc1c(OC)c(OC)c(CNCc3cccs3)c3c1[C@H](C2)N(C)CC3 [BS-TE-359]
2

Next:
For the molecule shown here, COc1ccc2cc1Oc1ccc(cc1)C[C@H]1c3cc(c(OC)cc3CCN1C)Oc1c(OC)c(OC)c(CNCc3ccco3)c3c1[C@H](C2)N(C)CC3 [BS-TE-350] , give the reported IC50.
1.8

###

# Test system: NB4 (acute promyelocytic leukemia, AML)
# protocol: Leukemia cell growth inhibition, MTT, 72 h (Example 5)
# Type: cell-based, human
# condition_label: Homo sapiens; 72 h, MTT
# IC90 per record follows
Hi! Could you send only the number? It should be in µg/mL, unit omitted.

Below, each entry is followed by its recorded IC90 result.
For the compound shown here, `COc1ccc2cc1Oc1ccc(cc1)C[C@H]1c3cc(c(OC)cc3CCN1C)Oc1c(OC)c(OC)c(CN(C)[C@@H](C)c3ccccc3)c3c1[C@H](C2)N(C)CC3` , give the reported IC90.
2.1

Same again, this time with `COc1ccc2cc1Oc1ccc(cc1)C[C@H]1c3cc(c(OC)cc3CCN1C)Oc1c(OC)c(OC)c(COC(C)=O)c3c1[C@H](C2)N(C)CC3`
7.42

Same again, this time with COc1ccc2cc1Oc1ccc(cc1)C[C@H]1c3cc(c(OC)cc3CCN1C)Oc1c(OC)c(OC)cc3c1[C@H](C2)N(C)CC3 [TTD, reference compound]
4.1

Same again, this time with COc1ccc2cc1Oc1ccc(cc1)C[C@H]1c3cc(c(OC)cc3CCN1C)Oc1c(OC)c(OC)c(CN3CCC(O)C3)c3c1[C@H](C2)N(C)CC3 (stereo partly drawn)
3.48

Same again, this time with `COc1ccc2cc1Oc1ccc(cc1)C[C@H]1c3cc(c(OC)cc3CCN1C)Oc1c(OC)c(OC)c(CN3CCSCC3)c3c1[C@H](C2)N(C)CC3`
4.4

Same again, this time with `COc1ccc2cc1Oc1ccc(cc1)C[C@H]1c3cc(c(OC)cc3CCN1C)Oc1c(OC)c(OC)c(CN3CCN(C)CC3)c3c1[C@H](C2)N(C)CC3`
1.4

Same again, this time with `CCN1CCN(Cc2c3c4c(c(OC)c2OC)Oc2cc5c(cc2OC)CCN(C)[C@H]5Cc2ccc(cc2)Oc2cc(ccc2OC)C[C@@H]4N(C)CC3)CC1`
1.6

Same again, this time with COc1ccc2cc1Oc1ccc(cc1)C[C@H]1c3cc(c(OC)cc3CCN1C)Oc1c(OC)c(OC)c(CN3CCCC(CO)C3)c3c1[C@H](C2)N(C)CC3 (stereo partly drawn)
1.9

Continuing:
For the compound shown here, `COc1ccc2cc1Oc1ccc(cc1)C[C@H]1c3cc(c(OC)cc3CCN1C)Oc1c(OC)c(OC)c(CN3CCOCC3)c3c1[C@H](C2)N(C)CC3` , give the reported IC90.
4.35

Same again, this time with `COc1ccc2cc1Oc1ccc(cc1)C[C@H]1c3cc(c(OC)cc3CCN1C)Oc1c(OC)c(OC)c(CNCc3ccc(C)o3)c3c1[C@H](C2)N(C)CC3`
2

Same again, this time with `COc1ccc2cc1Oc1ccc(cc1)C[C@H]1c3cc(c(OC)cc3CCN1C)Oc1c(OC)c(OC)c(CN3CCN(C(C)C)CC3)c3c1[C@H](C2)N(C)CC3`
1

Same again, this time with `COc1ccc2cc1Oc1ccc(cc1)C[C@H]1c3cc(c(OC)cc3CCN1C)Oc1c(OC)c(OC)c(CN3CCC(C#N)CC3)c3c1[C@H](C2)N(C)CC3`
4.5

###

# IC90 per record follows
# Test system: MG63 (osteosarcoma)
# protocol: Solid tumor cell growth inhibition, MTT, 72 h (Example 7)
# Format: cell-based, human
# condition_label: Homo sapiens; 72 h, MTT, MG-63
Hi! Could you send only the number? It should be in µg/mL, unit omitted.

Below, each entry is followed by its recorded IC90 result.
What measured IC90 is associated with `COc1ccc2cc1Oc1ccc(cc1)C[C@H]1c3cc(c(OC)cc3CCN1C)Oc1c(OC)c(OC)c(CNC3CC3)c3c1[C@H](C2)N(C)CC3` on MG63 (osteosarcoma)?
3.8

Same again, this time with `COc1ccc2cc1Oc1ccc(cc1)C[C@H]1c3cc(c(OC)cc3CCN1C)Oc1c(OC)c(OC)c(CNCc3ccco3)c3c1[C@H](C2)N(C)CC3`
1.6

Same again, this time with `CNCc1c2c3c(c(OC)c1OC)Oc1cc4c(cc1OC)CCN(C)[C@H]4Cc1ccc(cc1)Oc1cc(ccc1OC)C[C@@H]3N(C)CC2`
1.9

Same again, this time with `COc1ccc2cc1Oc1ccc(cc1)C[C@H]1c3cc(c(OC)cc3CCN1C)Oc1c(OC)c(OC)c(COC(=O)c3ccco3)c3c1[C@H](C2)N(C)CC3`
8.8

Continuing:
What measured IC90 is associated with `COc1ccc2cc1Oc1ccc(cc1)C[C@H]1c3cc(c(OC)cc3CCN1C)Oc1c(OC)c(OC)c(CN3CCC(O)CC3)c3c1[C@H](C2)N(C)CC3` on MG63 (osteosarcoma)?
4.84

Same again, this time with COc1ccc2cc1Oc1ccc(cc1)C[C@H]1c3cc(c(OC)cc3CCN1C)Oc1c(OC)c(OC)c(CNCC(C)O)c3c1[C@H](C2)N(C)CC3 (some centres unmarked)
3.11

Same again, this time with `COc1ccc2cc1Oc1ccc(cc1)C[C@H]1c3cc(c(OC)cc3CCN1C)Oc1c(OC)c(OC)c(COC(=O)c3ccccc3)c3c1[C@H](C2)N(C)CC3`
4.51

Same again, this time with `COc1ccc2cc1Oc1ccc(cc1)C[C@H]1c3cc(c(OC)cc3CCN1C)Oc1c(OC)c(OC)c(CNCc3ccc(C)o3)c3c1[C@H](C2)N(C)CC3`
2.8
